A compilation of Ki values for Tyrosine-protein kinase JAK3 (Homo sapiens) from the published literature.

Recorded results for 3 compounds are shown here.
>>> df
                                   compound                              assay_target  experimental_result
0  Nc1cccc(Nc2nccc(-c3ccc(NC(=O)CN4CCC(CO)CC4)cc3)n2)c1  Tyrosine-protein kinase JAK3 (Homo sapiens)            ≤ 1000 nM
1  O=c1ccc(-c2cnc3[nH]cc(-c4oncc4-c4cccc(F)c4F)c3c2)c[nH]1  Tyrosine-protein kinase JAK3 (Homo sapiens)             < 200 nM
2  Cc1cnc2c(-c3cc(N[C@@H](C)CO)ncn3)c(N)nn2c1  Tyrosine-protein kinase JAK3 (Homo sapiens)       500 to 5000 nM

API: the following record is the query input.
Field Ki (entry C1=C(c2ncnc3[nH]ccc23)C2CCC1C2 (stereo not shown) ) reads < 500 nM
